Molecular target: human orexin type 2 receptor (Homo sapiens, UniProt O43614)
Construct: expressed in transfected cells
Sequence (O43614 whole entry): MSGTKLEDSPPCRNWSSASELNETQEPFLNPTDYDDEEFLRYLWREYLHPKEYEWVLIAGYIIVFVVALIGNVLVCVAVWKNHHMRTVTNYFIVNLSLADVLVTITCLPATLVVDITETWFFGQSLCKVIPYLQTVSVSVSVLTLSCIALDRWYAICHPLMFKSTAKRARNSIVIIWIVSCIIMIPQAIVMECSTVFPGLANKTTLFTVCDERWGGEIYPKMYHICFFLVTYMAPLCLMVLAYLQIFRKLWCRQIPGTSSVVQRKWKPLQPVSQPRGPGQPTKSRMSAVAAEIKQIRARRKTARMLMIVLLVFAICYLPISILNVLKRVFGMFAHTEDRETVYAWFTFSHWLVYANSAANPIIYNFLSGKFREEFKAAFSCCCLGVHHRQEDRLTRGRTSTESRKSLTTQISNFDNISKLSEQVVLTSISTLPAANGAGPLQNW
Experiment: Measurement of orexin type 2 receptor agonist activity (calcium fluorescence, Fluo-4 AM, FDSS)
Format: cell-based
Conditions: test compound 3 μM; CHO cells expressing human OX2 receptor; DMSO = 0%, orexin A (human) = 100%
outcome-measure: OX2R agonist activity (3 μM, %)

CS(=O)(=O)NC[C@@H]1CCN1C(=O)[C@@H]1C[C@H]1c1ccccc1-c1c(F)cccc1F    94
CC1(NS(C)(=O)=O)CCN(C(=O)[C@@H]2C[C@@]2(F)c2ccccc2-c2c(F)cccc2F)C1 (stereo partly shown)    95
Cc1nnc(C2(NS(C)(=O)=O)CCN(C(=O)[C@@H]3C[C@@]3(F)c3ccccc3-c3c(F)cccc3F)C2)o1 (mixture of isomers)    75
CS(=O)(=O)NC12CC1CN(C(=O)C1CC1c1ccccc1-c1c(F)cccc1F)C2 (stereo not shown) [Example 272]    99
CS(=O)(=O)NC1CCN(C(=O)C2CC2c2ccccc2-c2ccc(F)cc2F)C1 (racemic)    80
CS(=O)(=O)NCC1CCN(C(=O)[C@@H]2C[C@@]2(F)c2ccccc2-c2c(F)cccc2F)C1 (stereo partly shown)    96
CS(=O)(=O)NC1CCCN(C(=O)C2CC2c2ccccc2-c2ccccc2Cl)CC1 (racemic)    92
CN(C)S(=O)(=O)NC[C@H]1CCN1C(=O)[C@@H]1C[C@H]1c1ccccc1-c1c(F)cccc1F    100
O=C([C@@H]1C[C@@]1(F)c1ccc(F)cc1-c1c(F)cccc1F)N1C[C@@H](F)[C@H]1CNS(=O)(=O)C(F)F    98
CS(=O)(=O)N[C@@H]1CN(C(=O)[C@@H]2C[C@H]2c2ccccc2-c2c(F)cccc2F)CC(F)(F)C1    87
O=C([C@@H]1C[C@@]1(F)c1ccc(F)cc1-c1c(F)cccc1F)N1C[C@@H](F)[C@H]1CNS(=O)(=O)C1CC1    99
CN(C)S(=O)(=O)NCC1CN(C(=O)[C@@H]2C[C@H]2c2ccccc2-c2c(F)cccc2F)CCO1 (stereo in doubt)    94
Cc1cc(-c2c(F)cccc2F)c(C2CC2C(=O)N2CC[C@H](NS(C)(=O)=O)C2)cn1 (mixture of isomers)    80
CS(=O)(=O)N[C@H]1CCCN(C(=O)[C@@H]2C[C@H]2c2ccccc2-c2c(F)cccc2F)CC1    93
CS(=O)(=O)NC1CCN(C(=O)C2CC2c2ccc(C(F)F)cc2-c2c(F)cccc2F)C1 (racemic)    90
CS(=O)(=O)NC[C@@H]1[C@H](F)CN1C(=O)[C@@H]1C[C@@]1(F)c1ccccc1-c1c(F)cccc1F    98
COC[C@H](NS(C)(=O)=O)C1CCN1C(=O)[C@@H]1C[C@@]1(F)c1ccccc1-c1c(F)cccc1F (stereo partly shown)    104
CCS(=O)(=O)NC[C@@H]1CCN1C(=O)[C@@H]1C[C@@]1(F)c1ccccc1-c1c(F)cccc1F (single isomer, unassigned)    101
COCC1(C(=O)N2CC[C@H]2CNS(C)(=O)=O)CC1c1ccc(F)cc1-c1c(F)cccc1F (stereo partly shown)    101
CN(C)S(=O)(=O)NC1CCCCN(C(=O)C2CC2c2ccccc2-c2c(F)cccc2F)C1 (racemic)    106
CC1CCN(C(=O)C2CC2c2ccccc2-c2c(F)cccc2F)CCC1NS(C)(=O)=O (racemic)    101
CN(C)S(=O)(=O)NC[C@@H]1CN(C(=O)[C@@H]2C[C@H]2c2ccccc2-c2c(F)cccc2F)CCO1    90
CC1[C@@H](NS(C)(=O)=O)CCN1C(=O)[C@@H]1C[C@H]1c1ccccc1-c1c(F)cccc1F (mixture of isomers)    88
CCS(=O)(=O)NC1COCCN(C(=O)[C@@H]2C[C@H]2c2ccccc2-c2c(F)cccc2F)C1 (stereo partly shown) [Example 294]    104
CNS(=O)(=O)NC[C@@H]1[C@H](F)CN1C(=O)[C@@H]1C[C@@]1(F)c1ccc(Cl)cc1-c1c(F)cccc1F    100
